Recorded inhibition at 1 µM, one value per entry.
tested.target: MAGL (Homo sapiens, UniProt Q99685)
Construct: Proteomes (human prefrontal cortex or cell membrane fractions); from tissue
Sequence (Q99685 whole entry): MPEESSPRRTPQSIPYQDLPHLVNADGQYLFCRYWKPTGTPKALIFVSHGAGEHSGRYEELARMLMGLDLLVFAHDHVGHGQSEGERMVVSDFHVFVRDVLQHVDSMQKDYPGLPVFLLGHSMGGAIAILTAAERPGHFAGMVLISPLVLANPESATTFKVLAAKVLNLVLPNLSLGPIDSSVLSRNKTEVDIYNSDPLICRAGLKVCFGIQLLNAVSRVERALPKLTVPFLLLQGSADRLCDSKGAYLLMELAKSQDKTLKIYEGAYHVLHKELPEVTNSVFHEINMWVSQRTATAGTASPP
assay.details: In vitro competitive activity-based protein profiling (human), MAGL
Assay type: biochemical
setup.conditions: 1 μM inhibitor, human proteome, 30 min preincubation at 37° C; read-out: MAGL % inh. 1 μM (human)
measurement.label: inhibition at 1 µM

# compound, observed.result
data = [
    ("CC1(C(=O)O)CN(c2cc(C(F)(F)F)ccc2CN2CCN(C(=O)OC(C(F)(F)F)C(F)(F)F)CC2)CCO1 (centres unmarked)", "≥ 75%"),
    ("O=C(O)C1CCN(c2cc(Cl)c(F)cc2CN2CCN(C(=O)OC(C(F)(F)F)C(F)(F)F)CC2)CC1", "≥ 75%"),
    ("O=C(O)Cn1cc(-c2cc(C(F)(F)F)ccc2CN2CCN(C(=O)OC(C(F)(F)F)C(F)(F)F)CC2)cn1", "≥ 75%"),
    ("O=C(O)CN1CCC2(C1)CN(c1cc(Cl)ccc1CN1CCN(C(=O)OC(C(F)(F)F)C(F)(F)F)CC1)C2", "≥ 75%"),
    ("O=C(O)CN1CC2CN(c3cc(C(F)(F)F)ccc3CN3CCN(C(=O)OC(C(F)(F)F)C(F)(F)F)CC3)CC2C1 (centres unmarked)", "≥ 75%"),
    ("O=C(OC(C(F)(F)F)C(F)(F)F)N1CCN(Cc2ccc(Cl)cc2C2(C(=O)O)CCCC2)CC1", "≥ 75%"),
    ("O=C(O)CN1CCCC12CCN(c1cc(C(F)(F)F)ccc1CN1CCN(C(=O)OC(C(F)(F)F)C(F)(F)F)CC1)CC2", "≥ 75%"),
    ("O=C(O)CNC1CCN(c2cc(C(F)(F)F)ccc2CN2CCN(C(=O)OC(C(F)(F)F)C(F)(F)F)CC2)CC1", "≥ 75%"),
    ("O=C(O)C1CCN(c2cc(OC(F)(F)F)ccc2CN2CCN(C(=O)OC(C(F)(F)F)C(F)(F)F)CC2)CC1", "≥ 75%"),
    ("O=C(O)C1COCCN1c1cc(C(F)(F)F)ccc1CN1CCN(C(=O)OC(C(F)(F)F)C(F)(F)F)CC1 (centres unmarked)", "≥ 75%"),
    ("O=C(O)CN1CCCC12CN(c1cc(C(F)(F)F)ccc1CN1CCN(C(=O)OC(C(F)(F)F)C(F)(F)F)CC1)C2", "≥ 75%"),
    ("CCCC1(C(=O)O)CCN(c2cc(CN3CCN(C(=O)OC(C(F)(F)F)C(F)(F)F)CC3)cc(C(F)(F)F)c2)CC1", "≥ 75%"),
    ("CC(C)(C(=O)O)N1CC2CN(c3cc(C(F)(F)F)ccc3CN3CCN(C(=O)OC(C(F)(F)F)C(F)(F)F)CC3)CC2C1 (centres unmarked)", "≥ 75%"),
    ("O=C(O)[C@H]1CCCN(c2cc(CN3CCN(C(=O)OC(C(F)(F)F)C(F)(F)F)CC3)cc(C(F)(F)F)c2)C1", "≥ 75%"),
]
